assay: in vivo; design: species or system mice; conditions: male, NOD.Cg-Rag1tm1Mom Il2rgtm1Wjl/SzJ (NRG), mouse, iv, total radioactivity, Biodistribution: Blood
Where a SMILES comes first, the peptide text is derived from it. Bridges are numbered along the chain shown (N, C = ends). Side-chain parts run from the residue outwards. [ ]: non-standard residue; d: D form. The star is where a group is joined. X3 = O=C(O)CN1CCN(CC(=O)O)CCN(CC(=O)N[C@@H](CS(=O)(=O)O)C(=O)N[C@@H](CCCCNC(=O)CCCc2ccc(Br)cc2)C(=O)*)CCN(CC(=O)O)CC1; X5 = O=C(O)CN1CCN(CC(=O)O)CCN(CC(=O)N[C@@H](CS(=O)(=O)O)C(=O)N[C@@H](CCCCNC(=O)CCCc2ccc(Cl)cc2)C(=O)*)CCN(CC(=O)O)CC1; X6 = COc1ccc(CCCC(=O)NCCCC[C@H](NC(=O)[C@H](CS(=O)(=O)O)NC(=O)CN2CCN(CC(=O)O)CCN(CC(=O)O)CCN(CC(=O)O)CC2)C(=O)*)cc1; X7 = COc1ccc(CCCC(=O)NCCCC[C@H](NC(=O)CN2CCN(CC(=O)O)CCN(CC(=O)O)CCN(CC(=O)O)CC2)C(=O)*)cc1; DOTA = O=C(O)CN1CCN(CC(=O)O)CCN(CC(=O)*)CCN(CC(=O)O)CC1; NMeLys(iPr) = CN[C@@H](CCCCNC(C)C)C(=O)O; 2Nal = N[C@@H](Cc1ccc2ccccc2c1)C(=O)O; Lys(iPr) = CC(C)NCCCC[C@H](N)C(=O)O; Cya = N[C@@H](CS(=O)(=O)O)C(=O)O
Could you please report measured tissue uptake at 1 h for the items listed next?
Number only, in %ID/g; omit the unit.

For CC(C)NCCCC[C@H](NC(=O)[C@H]1CCC(=O)N[C@@H](CCCCNC(=O)[C@H](CCCCNC(=O)CCCc2ccc(Br)cc2)NC(=O)[C@H](CS(=O)(=O)O)NC(=O)CN2CCN(CC(=O)O)CCN(CC(=O)O)CCN(CC(=O)O)CC2)C(=O)N[C@@H](Cc2ccc(O)cc2)C(=O)N[C@@H](CCCCNC(C)C)C(=O)N[C@H](CCCNC(=N)N)C(=O)N[C@@H](Cc2ccc3ccccc3c2)C(=O)N[C@H](C)C(=O)N1)C(N)=O [[^177Lu]Lu-BL34L20, metal not drawn] (K(X3)Y[Lys(iPr)][dR][2Nal][dA][dE][Lys(iPr)]-NH2; lactam N-7) the compound record lists tissue uptake at 1 h as 14.1

So for COc1ccc(CCCC(=O)NCCCC[C@H](NC(=O)[C@H](CS(=O)(=O)O)NC(=O)CN2CCN(CC(=O)O)CCN(CC(=O)O)CCN(CC(=O)O)CC2)C(=O)NCCCC[C@@H]2NC(=O)CC[C@H](C(=O)N[C@@H](CCCCNC(C)C)C(N)=O)NC(=O)[C@@H](C)NC(=O)[C@H](Cc3ccc4ccccc4c3)NC(=O)[C@@H](CCCNC(=N)N)NC(=O)[C@H](CCCCNC(C)C)NC(=O)[C@H](Cc3ccc(O)cc3)NC2=O)cc1 [[^68Ga]Ga-BL34L7, metal not drawn] (K(X6)Y[Lys(iPr)][dR][2Nal][dA][dE][Lys(iPr)]-NH2; lactam N-7) , the logged tissue uptake at 1 h turned out to be 1.73

For record CC(C)NCCCC[C@H](NC(=O)[C@H]1CCC(=O)N[C@@H](CCCCNC(=O)[C@H](CS(=O)(=O)O)NC(=O)CN2CCN(CC(=O)O)CCN(CC(=O)O)CCN(CC(=O)O)CC2)C(=O)N[C@@H](Cc2ccc(O)cc2)C(=O)N(C)[C@@H](CCCCNC(C)C)C(=O)N[C@H](CCCNC(=N)N)C(=O)N[C@@H](Cc2ccc3ccccc3c2)C(=O)N[C@H](C)C(=O)N1)C(N)=O [[^68Ga]Ga-BL34N1, metal not drawn] (K([Cya-DOTA])Y[NMeLys(iPr)][dR][2Nal][dA][dE][Lys(iPr)]-NH2; lactam N-7) the listed tissue uptake at 1 h is 0.32

Per the record, COc1ccc(CCCC(=O)NCCCC[C@H](NC(=O)CN2CCN(CC(=O)O)CCN(CC(=O)O)CCN(CC(=O)O)CC2)C(=O)N[C@@H](CS(=O)(=O)O)C(=O)NCCCC[C@@H]2NC(=O)CC[C@H](C(=O)N[C@@H](CCCCNC(C)C)C(N)=O)NC(=O)[C@@H](C)NC(=O)[C@H](Cc3ccc4ccccc4c3)NC(=O)[C@@H](CCCNC(=N)N)NC(=O)[C@H](CCCCNC(C)C)NC(=O)[C@H](Cc3ccc(O)cc3)NC2=O)cc1 [[68Ga]Ga-BL34L6, metal not drawn] (K([Cya-X7])Y[Lys(iPr)][dR][2Nal][dA][dE][Lys(iPr)]-NH2; lactam N-7) has tissue uptake at 1 h of 0.83

Consider CC(C)NCCCC[C@H](NC(=O)[C@H]1CCC(=O)N[C@@H](CCCCNC(=O)[C@H](CCCCNC(=O)CCCc2ccc(Cl)cc2)NC(=O)[C@H](CS(=O)(=O)O)NC(=O)CN2CCN(CC(=O)O)CCN(CC(=O)O)CCN(CC(=O)O)CC2)C(=O)N[C@@H](Cc2ccc(O)cc2)C(=O)N[C@@H](CCCCNC(C)C)C(=O)N[C@H](CCCNC(=N)N)C(=O)N[C@@H](Cc2ccc3ccccc3c2)C(=O)N[C@H](C)C(=O)N1)C(N)=O [[^68Ga]Ga-BL34L16, metal not drawn] (K(X5)Y[Lys(iPr)][dR][2Nal][dA][dE][Lys(iPr)]-NH2; lactam N-7) . Its measured tissue uptake at 1 h is 7.27

---

For each record, write down the corresponding tissue to tissue ratio at 3 h.
experiment: in vivo; parameters: species or system mice; conditions: male, NOD.Cg-Rag1tm1Mom Il2rgtm1Wjl/SzJ (NRG), mouse, iv, total radioactivity, Ratio Tumor-to-Blood
Where a SMILES comes first, the peptide text is derived from it. Bridges are numbered along the chain shown (N, C = ends). [ ]: non-standard residue; d: D form. The star is where a group is joined. X4 = O=C(O)CN1CCN(CC(=O)O)CCN(CC(=O)N[C@@H](CS(=O)(=O)O)C(=O)NCCCC[C@H](NC(=O)CNC(=O)CCCc2ccc(Cl)cc2)C(=O)*)CCN(CC(=O)O)CC1; X3 = O=C(O)CN1CCN(CC(=O)O)CCN(CC(=O)N[C@@H](CS(=O)(=O)O)C(=O)N[C@@H](CCCCNC(=O)CCCc2ccc(Br)cc2)C(=O)*)CCN(CC(=O)O)CC1; X5 = O=C(O)CN1CCN(CC(=O)O)CCN(CC(=O)N[C@@H](CS(=O)(=O)O)C(=O)N[C@@H](CCCCNC(=O)CCCc2ccc(Cl)cc2)C(=O)*)CCN(CC(=O)O)CC1; 2Nal = N[C@@H](Cc1ccc2ccccc2c1)C(=O)O; Lys(iPr) = CC(C)NCCCC[C@H](N)C(=O)O
In your answer, state the number alone without any accompanying words.

The molecule listed as CC(C)NCCCC[C@H](NC(=O)[C@H]1CCC(=O)N[C@@H](CCCCNC(=O)[C@H](CCCCNC(=O)CCCc2ccc(Br)cc2)NC(=O)[C@H](CS(=O)(=O)O)NC(=O)CN2CCN(CC(=O)O)CCN(CC(=O)O)CCN(CC(=O)O)CC2)C(=O)N[C@@H](Cc2ccc(O)cc2)C(=O)N[C@@H](CCCCNC(C)C)C(=O)N[C@H](CCCNC(=N)N)C(=O)N[C@@H](Cc2ccc3ccccc3c2)C(=O)N[C@H](C)C(=O)N1)C(N)=O [[^177Lu]Lu-BL34L20, metal not drawn] (K(X3)Y[Lys(iPr)][dR][2Nal][dA][dE][Lys(iPr)]-NH2; lactam N-7) shows tissue to tissue ratio at 3 h equal to 1.3

tissue to tissue ratio at 3 h reported for this molecule CC(C)NCCCC[C@H](NC(=O)[C@H]1CCC(=O)N[C@@H](CCCCNC(=O)[C@H](CCCCNC(=O)CCCc2ccc(Cl)cc2)NC(=O)[C@H](CS(=O)(=O)O)NC(=O)CN2CCN(CC(=O)O)CCN(CC(=O)O)CCN(CC(=O)O)CC2)C(=O)N[C@@H](Cc2ccc(O)cc2)C(=O)N[C@@H](CCCCNC(C)C)C(=O)N[C@H](CCCNC(=N)N)C(=O)N[C@@H](Cc2ccc3ccccc3c2)C(=O)N[C@H](C)C(=O)N1)C(N)=O [[^68Ga]Ga-BL34L16, metal not drawn] (K(X5)Y[Lys(iPr)][dR][2Nal][dA][dE][Lys(iPr)]-NH2; lactam N-7) : 5.74

So, CC(C)NCCCC[C@H](NC(=O)[C@H]1CCC(=O)N[C@@H](CCCCNC(=O)[C@H](CCCCNC(=O)[C@H](CS(=O)(=O)O)NC(=O)CN2CCN(CC(=O)O)CCN(CC(=O)O)CCN(CC(=O)O)CC2)NC(=O)CNC(=O)CCCc2ccc(Cl)cc2)C(=O)N[C@@H](Cc2ccc(O)cc2)C(=O)N[C@@H](CCCCNC(C)C)C(=O)N[C@H](CCCNC(=N)N)C(=O)N[C@@H](Cc2ccc3ccccc3c2)C(=O)N[C@H](C)C(=O)N1)C(N)=O [[68Ga]Ga-BL34T1, metal not drawn] (K(X4)Y[Lys(iPr)][dR][2Nal][dA][dE][Lys(iPr)]-NH2; lactam N-7) ? Its tissue to tissue ratio at 3 h was 3.17
